assay: NCI Yeast Anticancer Drug Screen. Data for the mlh1 rad18 strain (AID 175); conditions: S. cerevisiae mlh1 rad18 strain growth inhibition; at 50.0 µM
The panel holds about 79,000 compounds, 15% with a hit somewhere; the sample as a whole holds those more often. Activity calls are given as the source filed them. Cut-off read from the data, not from the text of the source: active = growth inhibition above about 70%; inactive = the rest.
Labels: active, inactive

1. COc1ccc2c(C)cc(N/N=C(\C)c3cn(C)n(-c4ccccc4)c3=O)nc2c1: inactive
2. OCCc1c[nH]c2ccccc12: inactive
3. O=Nc1c(O)[nH]c2c(Cl)cccc12: inactive
4. Cc1ccnc(NC(=O)Nc2ccccc2Cl)c1: inactive
5. CC1C(C)(C)P(=O)(OCCOP2(=O)C(C)(C)C(C)C2(C)C)C1(C)C (centres undefined): inactive
6. c1cc(CCc2ccncc2)ccn1: inactive
7. O=C1/C(=C/c2ccc(Br)cc2)CCC/C1=C\c1ccc(Br)cc1: inactive
8. NS(=O)(=O)c1cc2c(cc1Cl)NC(Cc1ccccc1)NS2(=O)=O (centres undefined): inactive
9. Cc1cccc(N=N/C(=N\NC(=O)c2cc(Cl)ccc2O)c2ccc(N(CCC#N)CCC#N)cc2C)c1: inactive
10. COc1nc2cc3c(cc2n2cccc12)oc1ccccc13: inactive
11. O=[N+]([O-])c1ccc(I)c(I)c1: inactive
12. CN(C)C(=O)/N=C1\SC(=Nc2ccccc2)C(=Nc2ccccc2)N1c1ccc([N+](=O)[O-])cc1: inactive
13. C=CCSc1nc2ccc(NC(C)=O)cc2s1: inactive
14. CCCN(CCC)S(=O)(=O)c1ccc(NC(=O)OC2CCCCC2)cc1: inactive
15. O=CCS: inactive
16. CC(=O)OC1C(O)C(C)OC(OC2C(C)OC(OC(=O)[C@@H]3CC[C@@H]4[C@H](C3)OC3(C[C@@H](OC(=O)/C=C/c5ccccc5)[C@@H](C)CO3)[C@@]43CO3)C(O)C2OC(C)=O)C1O (some centres undefined): active
17. CC(C)(C)c1cc(C(=O)O)c2c(c1)C(=O)OC2(c1ccccc1)c1ccccc1C(=O)O (centres undefined): inactive
18. Nc1ccc(C(=O)O)c(N)c1: inactive
19. CC1COC(C(C)c2ccccc2)O1 (centres undefined): inactive
20. Cc1cccc(-c2cc3cccnc3nc2NN=O)c1C: active
21. C[N+](C)(C)CC(=O)c1ccc[nH]1: inactive
22. COC[C@@H](N=CN1CCc2cc(OC)c(OC)cc2C1)C(C)(C)C: inactive
23. Cc1cc(O)cc(C)c1Cl: inactive
24. CCOC(=O)/N=c1/nc(N(C)C)ss1: inactive

###

experiment: NCI Yeast Anticancer Drug Screen. Data for the mlh1 rad18 strain (AID 175); conditions: S. cerevisiae mlh1 rad18 strain growth inhibition; at 50.0 µM; stronger effect = higher value
About 79,000 compounds went through this panel and 15% of them were active in at least one assay; those are over-represented in the sample as a whole.
growth inhibition values, listed per item
assay-readout: growth inhibition (%)

1) O=C(O)CNCc1ccc2c(c1)OCCO2: -15.8
2) Nc1ccc(C(=O)O)cc1[N+](=O)[O-]: -1.5
3) C/C(=N\NC(=S)N1CCCC1)c1ccc[nH]1: -2.3
4) CC(C)CC(NC(=O)OC(C)(C)C)C(=O)O (centres undefined): -16.9
5) CCCCCNC(=O)c1csc(-c2csc(CCNC(C)=O)n2)n1: 3.8
6) CCN(CC)CC(=O)Nc1c(C(N)=O)nnn1Cc1cc(Cl)c(C(=O)c2ccc(Cl)cc2)c(Cl)c1: -36.1
7) COc1ccc(N=Cc2ccc([N+](=O)[O-])cc2)cc1: 36.1
8) CCCSc1ccc([N+](=O)[O-])cc1[N+](=O)[O-]: 32.8
9) Oc1c(Cl)cc(Cl)cc1C1N2CCCCC2C2c3cccn3-c3ccccc3N21 (centres undefined): -30.6
10) CC1=CC(=O)C(c2ccccc2)CC1 (centres undefined): -5.3
11) Nc1c(S(=O)(=O)O)cc2cc(S(=O)(=O)O)ccc2c1N: 24.9
12) Cc1cccc(C)c1-n1c(C)nc2[nH]cc(C)c2c1=N: 8.95
13) COc1cc2ccnc(C#N)c2cc1OCc1ccccc1: -31.3
14) c1ccc(Cn2c(-c3ccccc3)c[n+]3ccccc23)cc1: -6.4
15) O=C(O)C(O)(O)C(=O)O: -4.05
16) Cc1ccc2ccccc2[n+]1CC(=O)c1ccc([N+](=O)[O-])cc1: -12.4
17) NC(=S)N/N=C/c1cc(=O)c2cc(Cl)ccc2o1: 55
18) Cc1ccc(C(O)c2ccccc2)cc1 (centres undefined): 9.5
19) CCC(=O)NCCc1ccccc1: -10.4
20) C=CCN(N=O)C(=O)N(CCC)CCCC(NC(C)=O)C(=O)NCc1ccccc1 (centres undefined): -14.2
21) C[CH2][Sn]([CH2]C)([O][P+](=O)C[Si](C)(C)c1ccccc1)[O][P+](=O)C[Si](C)(C)c1ccccc1 (centres undefined): 17.9
22) CCC1CN2CCc3cc(OC)c(OC)cc3C2CC1CC1c2cc(OC)c(OC)cc2CCN1C(=O)C1CCCN1 (centres undefined): -3.4
23) CCCCCCCCSCCCC(=O)O: -29.2
24) CSc1nc2c(c(O)c(C)c(=O)n2C2OC(COC(C)=O)C(OC(C)=O)C(OC(C)=O)C2OC(C)=O)c(=O)n1C (centres undefined): 7.25

FYI, the data here is from PubChem BioAssay (NCI).
